# GI50 annotations
- Tested on: TK-10
- method.summary: NCI tumour cell line growth inhibition, 48 h
The source made the active and inactive calls. Cut-off read from the data, not from the text of the source: active = GI50 up to about 1.1 µM and inactive = higher.

[[record]]
molecule = "CCOC(=O)[C@@H]1C2C(=C[C@H]3[C@H]1C(=O)N1CCCC[C@H]31)CCCN2C(=O)OCc1ccccc1 (some centres undefined)"
system = "TK-10"
result = "75.9 µM (inactive)"

[[record]]
molecule = "Cc1sc2nc(-c3ccc([N+](=O)[O-])cc3)c(/C=N/N=C(N)N)n2c1C"
system = "TK-10"
result = "1.5 µM (inactive)"

[[record]]
molecule = "c1ccc(-n2nc3ccc4nonc4c3n2)cc1"
system = "TK-10"
result = "> 100 µM (inactive)"

[[record]]
molecule = "CC(=O)NC(C=O)C(O[C@H](C)C(=O)NC(C)C(=O)NC(CCC(N)=O)C(=O)OCc1ccccc1)C(O)C(O)COC(=O)CCNc1c2ccccc2nc2cccc([N+](=O)[O-])c12 (some centres undefined)"
system = "TK-10"
result = "13.6 µM (inactive)"

[[record]]
molecule = "CC1CCCC(CC(=O)O)(CC(=O)O)C1 (centres undefined)"
system = "TK-10"
result = "> 100 µM (inactive)"

[[record]]
molecule = "O=C(CC(=O)C1CCOC1=O)C(=O)Nc1cccc(Cl)c1 (centres undefined)"
system = "TK-10"
result = "> 100 µM (inactive)"


[ask] Which GI50 is listed for O=[N+]([O-])c1ccc(/C=N\N=c2/ccc([N+](=O)[O-])c[nH]2)cc1 ?
[reply] > 100 µM (inactive)

[ask] Form field: reported GI50 of Oc1[nH]c(Nc2ccc(F)c(Cl)c2)nc2ncnc1-2
[reply] > 100 µM (inactive)

[ask] Record request: GI50 value, item [N-]=[N+]=Nc1cc(=O)oc2ccccc12
[reply] > 100 µM (inactive)

====

- System: Malme-3M
- method.summary: NCI tumour cell line growth inhibition, 48 h
Activity calls are given as the source filed them. Cut-off read from the data, not from the text of the source: active = GI50 up to about 1.1 µM and inactive = higher.
result.type: GI50

The examples below pair each entry with its known result.
[[record]]
compound = "NC(=S)N/N=C1\\CCCC\\C1=C/c1ccccc1"
system = "Malme-3M"
result_type = "GI50"
result = "60.8 µM (inactive)"

[[record]]
compound = "Cc1ccc(-c2nc3ccccc3c(=O)n2NC2OC(CO)C(O)C(O)C2O)cc1 (stereo not given)"
system = "Malme-3M"
result_type = "GI50"
result = "48.2 µM (inactive)"

[[record]]
compound = "COc1ccc(OC)c(NC2=NCCO2)c1"
system = "Malme-3M"
result_type = "GI50"
result = "> 100 µM (inactive)"


[ask] Sample Cc1c(O)oc2ccccc2c1=O — what was its GI50?
[reply] > 100 µM (inactive)

[ask] Look at this compound and give its reported GI50. CN1CCN(CCCCN2c3ccccc3Sc3ccc(N=[N+]=[N-])cc32)CC1
[reply] 2.43 µM (inactive)

[ask] Using the record for Cn1c(=O)n2c(=O)n(C)c(=O)n2c1=O , report its GI50.
[reply] > 100 µM (inactive)

====

- Test system: CCRF-CEM
- method.summary: NCI tumour cell line growth inhibition, 48 h
Calls of active or inactive are those of the source. Cut-off read from the data, not from the text of the source: active = GI50 up to about 1.1 µM and inactive = higher.
GI50 for assorted compounds

Please review the entries below; each comes with its answer.
[[record]]
compound = "N#CC(C(=O)CCC(=O)C(C#N)c1ccccc1)c1ccccc1 (centres undefined)"
result = "> 100 µM (inactive)"

[[record]]
compound = "O=C(O)C1(Cc2ccccc2)Cc2ccccc2C1"
result = "> 100 µM (inactive)"


[ask] Look up GI50: Nc1nc(=O)[nH]c2c1cnn2COCCO
[reply] > 100 µM (inactive)
